What Percent Effect was measured for each of the following?
# System: Arginase-2, mitochondrial (Homo sapiens)
# Sequence (whole entry): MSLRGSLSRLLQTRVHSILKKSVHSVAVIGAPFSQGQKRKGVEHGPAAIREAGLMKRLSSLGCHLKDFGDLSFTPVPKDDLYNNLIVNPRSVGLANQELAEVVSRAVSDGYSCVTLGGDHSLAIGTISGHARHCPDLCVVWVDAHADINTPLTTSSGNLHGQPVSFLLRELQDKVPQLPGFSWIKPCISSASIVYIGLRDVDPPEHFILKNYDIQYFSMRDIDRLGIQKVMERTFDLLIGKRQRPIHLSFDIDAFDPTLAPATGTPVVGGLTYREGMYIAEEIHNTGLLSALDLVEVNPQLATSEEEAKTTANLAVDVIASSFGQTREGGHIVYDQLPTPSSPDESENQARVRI
# Run description: in vitro enzyme assay to detect the production of urea directly proportional to the activity of Arginase II
# Format: functional
# Set-up: scale not given: in the data most compounds retested in dose-response had high values
# Measurement conditions: 30 µM
The answer is to be given in %; state only the numeric part.

Sample CC1CCN(S(=O)(=O)c2cccn(CC(=O)N3CCOCC3)c2=O)CC1 ; Percent Effect observed: 3.78

Sample CNC(=O)[C@H]1C[C@@H]2CN(C(=O)c3cscn3)C[C@@H]2N1S(C)(=O)=O ; Percent Effect observed: 4.87

Sample O=C1CC(c2ccsc2)c2c(n(C3CCOCC3)[nH]c2=O)N1 (stereo unspecified) ; Percent Effect observed: 2.7

Sample Cc1ccc([C@@H]2CN(S(=O)(=O)c3cccs3)C[C@H]2N(C)C)cc1 ; Percent Effect observed: -0.54

Sample Cn1cc(CC2CCN(C(=O)NCc3cn4ccsc4n3)C2)cn1 (stereo unspecified) ; Percent Effect observed: 2.7

Sample CNC(=O)[C@@H]1C[C@H]2CN(C(=O)c3ccco3)C[C@H]2N1C ; Percent Effect observed: -9.19

Sample CN(Cc1ccccn1)C(=O)[C@]12COC[C@H]1CN(Cc1cnn(C)c1)C2 ; Percent Effect observed: 5.95

Sample COc1ccccc1Oc1ncccc1CNC(=O)[C@@H](C)NC(C)=O ; Percent Effect observed: 4.87

Sample CN(Cc1cccnc1)C1CC2(CCN(c3ccccn3)CC2)C1 ; Percent Effect observed: 3.78

Sample CC(=O)NC(C)CC(=O)NCc1cccnc1Oc1ccccc1C (stereo unspecified) ; Percent Effect observed: 1.62

Sample CCn1c(Nc2ccccc2OC)nc2c(C)nn(C)c2c1=O ; Percent Effect observed: -9.19
